- Experiment description: viability profiling in RPMI8226 myeloma cells – cell-based, resazurin fluorescence, basal, 24 h, PK04 Diversity Set, profiling panel (AID 1180);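 also: RPMI8826 multiple myeloma cell line at 5000 cells per well; test concentration not given here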
- Test settings: higher = more signal
Measurement name: z-score
Form field (numeric): enter value without unit.

COC(=O)[C@@]1(Cc2ccc(OC)cc2)[C@H]2c3cc(C(=O)N4CCCC4)n(CCc4ccc(O)c(O)c4)c3C[C@H]2CN1C(=O)c1ccccc1
-1.33
CC(=O)n1cc(C(O)C2C=CC3C(=O)NC(=O)C3N2Nc2ccccn2)c2ccccc21 (configuration not stated)
-1.31
C=CCOC(=O)[C@H]1[C@@H]2C(=O)O[C@@H](c3ccccc3)[C@@H](c3ccccc3)N2[C@@H](c2ccc(OCCOC(=O)[C@@H]3C[C@@H]4C(=O)N5CCC[C@H]5C(=O)N4[C@@H]3c3cccc(OCCO)c3)cc2)[C@]12C(=O)Nc1ccc(I)cc12
-0.442
CC(C)[Si](C#CCCCC#N)(Oc1ccccc1Br)C(C)C
-0.193
C=CC1c2cc(O)c(OC)cc2CCN1Cc1cccc(OC(F)(F)F)c1 (configuration not stated)
-2.3
OCCCC1=CC(C2CC2)N(Cc2cccc(OC(F)(F)F)c2)CC1 (configuration not stated)
0.365

Exercise: Any idea what its z-score is? The compound is NCCCCCNC(=O)[C@H]1C[C@H]2C(=O)N3CCC[C@H]3C(=O)N2[C@H]1c1ccc(O)cc1
Key: -0.485

====

Listing of recorded composite z-score by entry.
- Tested on: Human papillomavirus type 1a E7 protein (residues 1-88)
- Experiment description: HPV1a E7 small-molecule binders, primary screen, biochemical, small-molecule microarray, residues 1-88, 635 nm (AID 1129)
- Test settings: small-molecule microarray binding, fluorescence 635 nm; higher = more signal
Form field (numeric): enter value without unit.

Exercise: Any idea what its composite z-score is? The compound is C#CCN1[C@H](/C=C/C2CC2)[C@H](Cc2ccccc2)OC(=O)[C@@H]1Cc1ccccc1
Key: 0.743

====

Listing of recorded composite z-score by entry.
- System: Sam68 (KHDRBS1)
- Experiment description: compounds binding KHDRBS1 protein – biochemical, small-molecule microarray, 635 nm fluorescence, primary screen (AID 1125);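 also: score merges 667 nm channel intensity with signal to noise over triplicate slides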
- Test settings: higher = more signal

In the examples that follow, each entry is paired with its recorded composite z-score.
COc1ccccc1CN1C(=O)c2ccccc2[C@@H](C(=O)NCc2ccccc2)[C@@H]1c1ccc(CO)cc1
1.09
N#Cc1ccc(C(O)C2C=CC3C(=O)N(c4ccccc4)C(=O)C3N2Nc2ccccc2F)cc1 (stereo not given)
0.864
CC(=O)NCCCC[C@@H]1NC(=O)[C@H]2C[C@@H](C(=O)O)[C@@H](c3ccc(O)cc3)N2C1=O
1.29
CC(c1ccccc1)C(O)C1C=CC2C(=O)N(c3ccccc3)C(=O)C2N1Nc1ccccc1 (stereo not given)
1.34
O=C1NC(=O)C2C1C=CC(C(O)c1ccc(-c3ccccc3)s1)N2Nc1ccc(Cl)cc1Cl (stereo not given)
1.33
C=CC[C@]1(C(=O)N2CCOCC2)N=C(c2ccc(OCCCO)cc2)O[C@H]1c1ccccc1N=[N+]=[N-]
1.29
C=CCN(Cc1ccccc1)C(=O)C(c1cccs1)N(C(=O)/C=C\C(=O)O)c1ccc(CCOCCO)cc1 (stereo not given)
-1.33
CCCC=C(CCC)[C@@H](NS(=O)(=O)c1ccc(Cl)cc1)c1ccc(C(=O)OC)cc1
0.674
[N-]=[N+]=NCc1ccccc1[C@@H]1OC(c2ccc(OCCCO)cc2)=N[C@]1(CCS(=O)(=O)c1ccccc1)C(=O)N1CCOCC1
1.3
COC(=O)c1c(CC[C@@H](CO)NC(=O)NCCc2c[nH]c3ccccc23)oc(C(=O)Cc2ccccc2)c1C(=O)OC
0.583

Exercise: Any idea what its composite z-score is? The compound is COCCOC(=O)N1C(=O)[C@@]2(c3ccccc31)[C@H](c1ccc(OCCO)cc1)N1[C@H](c3ccccc3)[C@H](c3ccccc3)OC(=O)[C@H]1[C@@H]2C(=O)N1CCc2cc(OC)c(OC)cc2C1
Key: 1.28

Exercise: Can you check COC(=O)[C@@]1(Cc2ccc(OC)cc2)[C@H]2c3cc(C(=O)N4CCCC4)n(CCSCCO)c3C[C@H]2CN1C(=O)c1ccccc1 next?
Key: 0.657

Exercise: Can you check COC(=O)[C@]1(CCC(=O)OC(C)(C)C)N=C(c2ccc(OCCCO)cc2)O[C@@H]1c1ccccc1 next?
Key: -0.116

Exercise: Can you check CC(C)OC(=O)C=C1C[C@@H](c2cccc(Cl)c2)O[C@@H](c2cccc(Cl)c2)O1 next?
Key: -0.296

Exercise: Can you check CCCC1(C(=O)OC)C=C2C(=C(c3ccccc3)C(=O)C2C)CN1 (stereo not given) next?
Key: 0.0707

====

- Experiment description: JC-1 mitochondrial signal, unstimulated HepG2 cells – cell-based, JC-1 fluorescence, 24 h, 100 nL compound, profiling panel (AID 1167); also: test concentration not given here
- Test settings: HepG2 mitochondrial potential, higher = more signal
Listing of recorded z-score by entry.
Form field (numeric): enter value without unit.

CC=CC(O)C1C=CC2C(=O)N(C)C(=O)C2N1N(c1ccccc1)c1ccccc1 (stereo unspecified)
-0.0443
CC(c1ccccc1)C(O)C1C=CC2C(=O)N(C)C(=O)C2N1NC(=O)OC(C)(C)C (stereo unspecified)
-0.741

Exercise: Any idea what its z-score is? The compound is COCCOC(=O)N1C(=O)[C@@]2(c3cc(C#CC4=CCCCC4)ccc31)[C@H](c1ccc(OCCO)cc1)N1[C@H](c3ccccc3)[C@H](c3ccccc3)OC(=O)[C@H]1[C@@H]2C(=O)N1CCc2cc(OC)c(OC)cc2C1
Key: 0.578

Exercise: Can you check COc1cc2c(cc1O)C(c1cccs1)N(Cc1ccc([N+](=O)[O-])o1)CC2 (stereo unspecified) next?
Key: -0.771

Exercise: Can you check [N-]=[N+]=NCc1ccccc1C[C@@]1(C(=O)NCC(O)CO)N=C(c2ccc(OCCCO)cc2)O[C@@H]1c1ccccc1 (stereo partly specified) next?
Key: -2.54

Exercise: Can you check CCN(CC)c1ccc(N2CC=CC34O[C@@H]5/C=C\CCC(C)OC(=O)C5[C@H]3C(=O)N(CCCCCO)[C@@H]4C2=O)cc1 (stereo partly specified) next?
Key: 0.423

====

Listing of recorded z-score by entry.
- Experiment description: blockers of DNA damage checkpoint Chk1 activation – imaging, HeLa, hydroxyurea, phospho-Chk1 antibody, percent positive cells, primary screen (AID 1186)
- Test settings: hydroxyurea-induced phospho-Chk1 immunofluorescence imaging, higher = more signal
Form field (numeric): enter value without unit.

CCOC(=O)C1=CC[C@@H](c2ccccc2)N(S(=O)(=O)c2ccc(C)cc2)[C@H]1c1ccc(CC)cc1
-0.0619
C#CCNCc1ccccc1
0.213
COCC(=C=CC[C@H](O)c1cccc(OCCO)c1)CCO
-0.0132
CC1CC/C=C\[C@H]2OC34C=CCN(Cc5ccccc5)C(=O)[C@H]3N(C(C)CO)C(=O)[C@@H]4C2C(=O)O1 (some centres not stated)
-0.682
O=C(NC1CC1)[C@@H]1c2ccccc2C(=O)N(C2Cc3ccccc3C2)[C@H]1c1ccc(CO)cc1
-0.217

Exercise: Any idea what its z-score is? The compound is C=CCNC(=O)[C@H]1[C@@H]2C(=O)O[C@@H](c3ccccc3)[C@@H](c3ccccc3)N2[C@@H](c2ccc(OCCO)cc2)[C@]12C(=O)Nc1ccc(C#CCC(C(=O)OC)C(=O)OC)cc12
Key: 0.239

====

- Experiment description: small molecules captured by biotinylated probe aFSTL3 – biochemical, small-molecule microarray, fluorescence 635/667, stem cell growth factor project, primary screen (AID 1064);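 also: measures binding of the biotinylated anti-FSTL3 antibody to printed compounds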
- Test settings: higher = more signal
Parameter threshold = 0.6. Response is Condition met when composite z-score meets or exceeds it, else Condition not met.

Example cases with answers are listed next.
CC#CC(=O)Oc1ccc(Br)cc1C=CC(=O)OCC
Condition not met
CCOc1cc(C(O)C2C=CC3C(=O)N(c4ccccc4)C(=O)C3N2Nc2ccc(C(C)C)cc2)ccc1O (centres undefined)
Condition not met
CC(=O)NCCCC[C@@H]1NC(=O)[C@H]2C[C@@H](C(=O)NCCCCCNC(=O)CS)[C@@H](c3ccc(O)cc3)N2C1=O
Condition met
CC(C)CN1C(=O)[C@@]2(c3ccc([N+](=O)[O-])cc3)CC(=O)N(C3CCCCC3)[C@@H]2c2ccc(CO)cc21
Condition not met

Exercise: Item O=C1C2C=CC(C(O)C=Cc3ccc([N+](=O)[O-])cc3)N(n3cnnc3)C2C(=O)N1Cc1ccccc1 (centres undefined) with composite z-score of 0.6 or above?
Key: Condition not met

Exercise: Can you check COc1ccc([C@H]2OC[C@@H]3CCC(=O)N32)cc1 next?
Key: Condition not met

Exercise: Can you check [N-]=[N+]=NCc1ccccc1C[C@@]1(C(=O)NCC(O)CO)N=C(c2ccc(OCCCO)cc2)O[C@@H]1c1ccccc1 (some centres undefined) next?
Key: Condition met

Exercise: Can you check COC(=O)[C@@]1(Cc2ccccc2)[C@H]2c3cc(C(=O)N(C)C)n(CCc4c[nH]c5ccc(O)cc45)c3C[C@H]2CN1C(=O)c1ccccc1 next?
Key: Condition met

Exercise: Can you check O=C1C2C=CC(C(O)COCc3ccccc3)N(Nc3ccc([N+](=O)[O-])cc3)C2C(=O)N1c1ccccc1 (centres undefined) next?
Key: Condition not met
